assayedSystem: human GPR40 (Homo sapiens, UniProt O14842)
Construct: expressed in transfected cells; host or cells: CHO cell line stably expressing human GPR40
Sequence (O14842 whole entry): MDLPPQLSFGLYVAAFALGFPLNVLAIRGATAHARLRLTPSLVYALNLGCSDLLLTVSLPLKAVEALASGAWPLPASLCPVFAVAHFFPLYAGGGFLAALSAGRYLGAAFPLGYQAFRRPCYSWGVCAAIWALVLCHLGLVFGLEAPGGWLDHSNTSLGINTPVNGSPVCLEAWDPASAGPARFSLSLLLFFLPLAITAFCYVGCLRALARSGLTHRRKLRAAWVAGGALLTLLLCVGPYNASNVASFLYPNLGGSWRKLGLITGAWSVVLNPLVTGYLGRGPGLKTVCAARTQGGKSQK
assayName: Receptor function modulating action (agonist action) against human-derived GPR40: intracellular calcium change by FLIPR in CHO cells stably expressing human GPR40
Assay type: cell-based
recordedConditions: agonist activity of each compound at 1 μM, relative to the activity of 10 μM γ-linolenic acid as 100%, CHO cell line stably expressing human GPR40
experimentalReadout: Relative activity value (%)
Your answer is read as %, so omit the unit and give the number.

Summary for this compound, CC(C)CCN(Cc1ccc(COc2ccc(C3CC3C(=O)O)cc2)cc1)c1nc(-c2ccc(C(F)(F)F)cc2)cs1 (stereo not drawn) : Relative activity value is 99

Summary for this compound, Cc1cc(OCC2(C)COC2)cc(C)c1-c1cccc(COc2ccc(C3CC3C(=O)O)cc2)c1 (stereo not drawn) : Relative activity value is 119

Summary for this compound, Cc1cc(OC2CCS(=O)(=O)CC2)cc(C)c1-c1cccc(COc2ccc(C3CC3C(=O)O)cc2)c1 (stereo not drawn) : Relative activity value is 108
